# study_system: KIX domain of CBP (UniProt P45481 586-665)
# Sequence (P45481 586-665): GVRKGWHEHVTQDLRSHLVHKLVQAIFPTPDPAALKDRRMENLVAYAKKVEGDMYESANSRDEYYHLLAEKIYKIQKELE
# test_method_notes: fluorescence polarisation; equilibrium fluorescence anisotropy; KIX titrated into N-terminally FITC-labelled pKID peptide; biophysical buffer and conditions as in the accompanying article (ref. 42); KdEqub
# test_context: both partners purified
Non-standard residues stand in square brackets, D forms with d. No end group written: not given here. *: point of attachment. FITC = O=C1OC2(c3ccc(O)cc3Oc3cc(O)ccc32)c2ccc(NC(=S)*)cc21; pS = N[C@@H](COP(=O)(O)O)C(=O)O
measured_metric: Kd (µM)

{FITC}-DSVTDSQKRREILSRRPSYRKILNDLSSDAP (peptide, UniProt P15337-1 116-146, looked up, 'pSer to Ser' in the text; also called ∆pS133; pS133S; source: synthetic peptide, bought: Biomatik) [FITC-KID, not phosphorylated at Ser133 (CREB residues 116-146)] | 28.7

(A) {FITC}-DSVTDSQKAREILSRRP[pS]YRKILNDLSSDAP (peptide, UniProt P15337-1 116-146, looked up, source: synthetic peptide, bought: Biomatik) [FITC-pKID R124A]
(B) {FITC}-DSVTDSQKRREILSRRP[pS]YRKALNDLSSDAP (peptide, UniProt P15337-1 116-146, looked up, source: synthetic peptide, bought: Biomatik) [FITC-pKID I137A]
input: Between item A and item B , which reported Kd is smaller? Refer to your chosen item by its label in the answer.
output: A
